System Under Test: Neuronal acetylcholine receptor (Rattus norvegicus) (UniProt P04757+P09483+P12389+P12390+P12392+P43144+Q9JLB5+P12391+P43143+P20420+Q05941)
Protocol Details: In vitro neuronal nAChRs evoked [3H]dopamine release was determined in rat striatal slices at concentration of 10e-6 M
Assay type: functional
Result Type: Dopamine release

entry_smiles=CCc1cc([C@H]2CCCN2)on1 result_type="Dopamine release" value_reported=30%
entry_smiles=COCc1cc([C@H]2CCCN2C)on1 result_type="Dopamine release" value_reported=51%
entry_smiles=CN1CCC[C@H]1c1cccnc1 result_type="Dopamine release" value_reported=126%
entry_smiles=c1cncc([C@H]2CCCN2)c1 result_type="Dopamine release" value_reported=93%
entry_smiles=Cc1cc([C@@H]2CCCN2C)on1 result_type="Dopamine release" value_reported=85%
entry_smiles=Cc1cc([C@H]2CCCN2)on1 result_type="Dopamine release" value_reported=43%
entry_smiles=CN1CCC[C@@H]1c1cc(Cc2ccccc2)no1 result_type="Dopamine release" value_reported=30%
entry_smiles=CCc1cc([C@H]2CCCN2C)on1 result_type="Dopamine release" value_reported=78%
entry_smiles=CCc1cc([C@@H]2CCCN2)on1 result_type="Dopamine release" value_reported=79%
entry_smiles=c1cncc([C@@H]2CCCN2)c1 result_type="Dopamine release" value_reported=155%
entry_smiles=Cc1cc([C@H]2CCCN2C)sn1 result_type="Dopamine release" value_reported=41%
entry_smiles=CN1CCC[C@@H]1c1cc(CO)no1 result_type="Dopamine release" value_reported=41%
entry_smiles=CN1CCC[C@@H]1c1cc(C(F)(F)F)no1 result_type="Dopamine release" value_reported=92%
entry_smiles=Cc1cc([C@H]2CCCN2C)on1 result_type="Dopamine release" value_reported=95%
entry_smiles=Cc1cc([C@H]2CCCN2)sn1 result_type="Dopamine release" value_reported=61%
entry_smiles=CCCCc1cc([C@H]2CCCN2C)on1 result_type="Dopamine release" value_reported=38%
entry_smiles=CCN1CCC[C@@H]1c1cc(C)no1 result_type="Dopamine release" value_reported=64%
entry_smiles=CCCc1cc([C@H]2CCCN2C)on1 result_type="Dopamine release" value_reported=45%
entry_smiles=Cc1cc([C@@H]2CCCN2)on1 result_type="Dopamine release" value_reported=111%
entry_smiles=Cc1cc([C@@H]2CCCN2)sn1 result_type="Dopamine release" value_reported=56%
entry_smiles=CN1CCC[C@@H]1c1cccnc1 result_type="Dopamine release" value_reported=114%
entry_smiles=Cc1cc([C@@H]2CCCN2C)sn1 result_type="Dopamine release" value_reported=22%
entry_smiles=CCc1cc([C@@H]2CCCN2C)on1 result_type="Dopamine release" value_reported=46%
